tested on: ACHN renal; experiment: NCI-60 one-dose screen, 48 h; conditions: 10 µM unless noted
This is part of a sample that, as a whole, favours compounds with a hit. Of some 83,000 tested, about 20% had one in any assay. Activity calls are given as the source filed them. Rule for the calls: active = growth percent below 10; inactive = the rest.
Use one of these outcomes when replying: yes (1) = active, no (0) = inactive

Here are 8 compounds together with their reported answers.
# Compound, Class name
data = [
    ("Cn1cc(-c2csc(-c3cn(C(=O)OC(C)(C)C)c4ccc(Br)cc34)n2)c2ccnc(Cl)c21", "no (0)"),
    ("COc1c(B(O)O)cccc1-c1cc(C)c2c(ccc3[nH]ncc32)n1", "no (0)"),
    ("CC(=O)N1N=C(c2ccc(C(F)(F)F)c(F)c2)CC1c1[nH]c(C)c(C(=O)NCC(F)(F)F)c1C (stereo not drawn)", "no (0)"),
    ("C1CN(SSN2CCOCC2)CCO1", "yes (1)"),
    ("COc1cc(C2CC(c3ccc(Nc4nc(Nc5ccc(Cl)cc5)nc(Nc5ccc(Cl)cc5)n4)cc3)=NN2C(C)=O)cc(OC)c1OC (stereo not drawn)", "no (0)"),
    ("COc1ccc(-c2nc3c(ncc4ccc(=O)[nH]c43)s2)cc1", "no (0)"),
    ("CC1OC(n2c3ccccc3c3c4c(c5c6ccccc6[nH]c5c32)C(=O)N(CCN2CCCC2)C4=O)CC(O)C1O (stereo not drawn)", "no (0)"),
    ("Oc1c(Br)cc(Br)c2ccc(Cn3cc(-c4ccccc4C(F)(F)F)nn3)nc12", "no (0)"),
]

In: Any idea what this test logged for CC(=O)N1N=C(c2ccc(Nc3nc(Nc4ccccc4)nc(Nc4ccccc4)n3)cc2)CC1c1ccccc1 (stereo not drawn) ?
Out: no (0)

In: Any idea what this test logged for Cn1ccnc1C(=O)/C=C/c1ccc(CC(=O)Nc2cc(C(F)(F)F)cc(C(F)(F)F)c2)cc1 ?
Out: no (0)

In: Any idea what this test logged for Nc1[nH]n2cc(-c3ccccc3)nc2c1N=Nc1ccc(S(N)(=O)=O)cc1 ?
Out: yes (1)

----------
system: HOP-92 NSCLC; assay: NCI-60 one-dose screen, 48 h (100 = growth as untreated, 0 = no growth, -100 = all killed); conditions: 10 µM unless noted
The panel holds about 83,000 compounds, 20% with a hit somewhere; the sample as a whole holds those more often.
// values below are reported growth
Return type: number; implicit unit %.

# annotated cases, reported growth shown
# Compound, Unit string, growth
measured = [
    ("COc1ccc(NC(=O)c2sc3nc(C)c(C(=O)/C=C/c4ccccc4)cc3c2N)cc1", "%", 109),
    ("O=c1c2cccc3c(N4CCCC4)ccc(c32)c2nc3ccccc3n12", "%", 40.7),
    ("CCN1C(=O)N(CC)C2C1NN=c1s/c(=C\\c3ccccc3F)c(=O)n12 (stereo not drawn)", "%", 40.3),
    ("COc1ccc(C(=O)N2c3ccccc3Sc3ccccc32)c(OC)c1", "%", 31.3),
    ("O=C(NNC(=O)c1ccc(NC(=O)c2ccccn2)cc1)Nc1ccc([N+](=O)[O-])cc1", "%", 96.7),
]

In: // Input: O=C(C[C@]1(O)C(=O)Nc2ccccc21)c1cccc(C(F)(F)F)c1 . Output its growth only.
Out: 77.3

In: // Input: C[PH+](c1nc2ccccc2nc1[PH+](C)C(C)(C)C)C(C)(C)C.C[PH+](c1nc2ccccc2nc1[PH+](C)C(C)(C)C)C(C)(C)C.[Au+].[Cl-] (stereo not drawn) . Output its growth only.
Out: -81.5

In: // Input: Cc1cc(=O)n(C(=O)Nc2ccccc2Cl)c2cc(O)ccc12 . Output its growth only.
Out: 79.7

In: // Input: COc1ccc2c(c1OC)CO[C@@H]2[C@H]1c2c(cc3c(c2OC)OCO3)CCN1S(=O)(=O)c1cn(C)cn1 . Output its growth only.
Out: 60.7

In: // Input: COc1ccc(C(=O)c2cc3c(N)c(C(=O)Nc4ccc(C)cc4)sc3nc2C)cc1 . Output its growth only.
Out: 70.8

In: // Input: O=c1c2ccccc2n2cnc3ccc(Cl)c1c32 . Output its growth only.
Out: 102

In: // Input: Nc1n[nH]c2cccc(C#Cc3cccc(NC(=O)c4cc(F)cc(C(F)(F)F)c4)c3)c12 . Output its growth only.
Out: 39.1

In: // Input: COc1ccccc1CNc1c2ccccc2nc2ccccc12 . Output its growth only.
Out: 18.2

----------
tested on: SF-539 CNS; test: NCI-60 one-dose screen, 48 h (100 = growth as untreated, 0 = no growth, -100 = all killed); settings: 10 µM unless noted
The panel holds about 83,000 compounds, 20% with a hit somewhere; the sample as a whole holds those more often.
Threshold rule: growth greater than or equal to 90% is Met; below that, Not met.

Here are 6 molecules together with their reported answers.
# Molecule, Assayed target, Class name
rows = [
    ("CCCCCC(/C=N\\NC(=S)N/N=C/C(=C/c1ccccc1)CCCCC)=C\\c1ccccc1", "SF-539 CNS", "Not met"),
    ("COc1ccc(C(C)=O)cc1S(=O)(=O)Nc1c(N)nc(SC)[nH]c1=O", "SF-539 CNS", "Met"),
    ("Cc1nc2sc(C(=O)Nc3cccc4ccccc34)c(N)c2cc1C(O)c1ccccc1 (centres undefined)", "SF-539 CNS", "Not met"),
    ("Cn1cc(-c2nonc2-c2cn(C)c3ccccc23)c2ccccc21", "SF-539 CNS", "Not met"),
    ("COc1ccc(C(=O)C/C(=C\\c2ccc(Cl)cc2)C(=O)NCc2ccccc2)cc1", "SF-539 CNS", "Met"),
    ("CCOC(=O)C1=C(N)Oc2c(sc3c(F)cccc23)C1c1ccc(O)cc1 (centres undefined)", "SF-539 CNS", "Not met"),
]

Lab note: next molecule to report on.
In: Can CN(C)CCNC(=O)c1cc2c3cc(Cl)ccc3[nH]c2c2ncccc12 be said to have growth at or above 90%?
Out: Not met

----------
test system: SK-MEL-28 melanoma; experiment: NCI-60 one-dose screen, 48 h (100 = growth as untreated, 0 = no growth, -100 = all killed); details: 10 µM unless noted
The panel holds about 83,000 compounds, 20% with a hit somewhere; the sample as a whole holds those more often.
Parameter measured: growth (%)
Return type: number; implicit unit %.

# Compound, Assayed target, growth / %
data = [
    ("CCC1=C[C@@H]2C[C@]3(C(=O)OC)c4[nH]c5ccccc5c4CC[N@+](CC(=O)Nc4cc5c(cc4OC)N(C)[C@H]4[C@@](O)(C(=O)OC)[C@H](OC(C)=O)[C@]6(CC)C=CCN7CC[C@]54[C@@H]76)(C2)[C@H]13", "SK-MEL-28 melanoma", 109),
    ("NC(=O)CSc1oc(-c2ccccc2)nc1S(=O)(=O)c1ccc(Br)cc1", "SK-MEL-28 melanoma", 87.7),
    ("Nc1ncnc2c1C(c1ccc(Br)cc1)c1sc3c(F)cccc3c1O2 (stereo not given)", "SK-MEL-28 melanoma", 119),
    ("c1ccc2cc(C[n+]3ccn(CCCCCCCCCCn4cc[n+](Cc5ccc6ccccc6c5)c4)c3)ccc2c1", "SK-MEL-28 melanoma", 20.6),
    ("CCCCCCC12CCC(=O)N1CCc1cncn12 (stereo not given)", "SK-MEL-28 melanoma", 112),
    ("Nc1c(C(=O)Nc2ccncc2)sc2nc3c(cc12)C(O)CCC3 (stereo not given)", "SK-MEL-28 melanoma", 85.5),
    ("Clc1ccc(/C=N\\N=C\\c2ccc(Cl)c(Cl)c2)cc1Cl", "SK-MEL-28 melanoma", 101),
    ("C=CCc1c(O)c(C(=O)/C=C/c2ccccc2)c(OC)c2ccoc12", "SK-MEL-28 melanoma", 64.6),
    ("CC(C)(Sc1cc(C(C)(C)C)c(O)c(C(C)(C)C)c1)Sc1cc(C(C)(C)C)c(OC(=O)CCCC(=O)O)c(C(C)(C)C)c1", "SK-MEL-28 melanoma", 70.6),
]

Consider now this further compound.
In: // fetch growth; item: N#Cc1nc(-c2ccccc2)oc1S(=O)(=O)N1CCN(c2ccccc2)CC1 ; system: SK-MEL-28 melanoma
Out: 106

----------
// values below are reported growth
system: MDA-MB-231 breast; assay: NCI-60 one-dose screen, 48 h (100 = growth as untreated, 0 = no growth, -100 = all killed); conditions: 10 µM unless noted
Compounds without any hit were thinned out: in the full panel of roughly 83,000, 20% have a hit.
Return type: number; implicit unit %.

# annotated cases, reported growth shown
# Smiles data, Unit string, growth
rows = [
    ("COc1ccc(/C=C(\\C#N)n2nnc3cc(Cl)ccc32)cc1", "%", -56.3),
    ("C=CCN=c1sc2c(n1NC(=O)c1cc3ccc1CCc1ccc(cc1)CC3)C(=O)c1ccccc1C2=O", "%", -6.76),
]

In: // fetch growth; item: c1ccc(Cn2cc3c(c2)-c2oncc2CC3)cc1 ; system: MDA-MB-231 breast
Out: 8.74
